Experiment: ATG_Oct_MLP_CIS: Attagene CIS-FACTORIAL HepG2 Assay for human Octamer-Binding Transcription Factor (Oct) (AID 2282993)
Conditions: HepG2 Attagene cis-factorial Oct reporter, mRNA; actives raise or lower the signal
Calls of active or inactive are those of the source. How the source made its calls: active means hit-call score of the fitted dose curve at least 0.9, where 1 is the maximum; inactive means score below 0.9.
measured-attribute: outcome

Some solved cases for reference:
CCC(C)N (stereo unspecified)    inactive
CC(Cl)COP(=O)(OCC(C)Cl)OCC(C)Cl (stereo unspecified)    inactive
Cn1ccnc1    inactive
Fc1ccc(Br)cc1    inactive
CCCCCCCO    inactive

Respectfully, I request outcome for each entry included below.
1. CCCCC(=O)O
2. Cc1cc(C)n(CO)n1

inactive
inactive
